Value source: patent US5032597A

# Test system: L1210 leukemia
# Assay Details: Lymphoid Leukemia L1210, survival of tumored mice
# Type: in vivo, CD2F1 mice
# Study Conditions: Mus musculus, L1210, ip, 720 h, 300 mg/kg i.p.; read-out: L1210 Leukemia % T/C (median survival time)
# Experimental: The efficacy of the compounds of this invention against the transplanted mouse tumors was evaluated in test systems currently in use at the National Cancer Institute for the detection and assessment of anticancer activity. […] The animals used in this test were CD2 F1 mice, all males weighing a minimum of 18 g and all within a 4 g weight range at the start of the test. […] The mice were weighed and survivors were recorded on a regular basis for 30 days. […]
Measurement Kind: response vs control in vivo at 300 mg/kg (%)

| Compound | Value Units | Recorded Measurement |
| --- | --- | --- |
| Cc1c(-c2ccc(-c3ccccc3)cc2)nc2c(Br)cc(Br)cc2c1C(=O)O [Example 60] | % | 192 |
| Cc1cc2c(C(=O)O)c(C)c(-c3ccc(Oc4ccccc4)cc3)nc2cc1Cl [Example 59] | % | 152 |
| Cc1ccc(-c2ccc(-c3nc4ccc(F)cc4c(C(=O)O)c3C)cc2)cc1 [Example 30] | % | 291 |
| Cc1c(-c2ccc(SCc3ccccc3)cc2)nc2ccc(F)cc2c1C(=O)O [Example 26] | % | 136 |
| Cc1c(-c2ccc(-c3ccc(F)cc3)cc2)nc2cc(Cl)c(F)cc2c1C(=O)O [Example 54] | % | 125 |
